# System: Human diploid fibroblast BJ
# assay-method-text: In vitro cytotoxic activity (metabolisation of MTT)
# Type: cell-based
# test-settings: 72 hours, BJ passage 18-22
readout-name: GI20

Here's what some known entries look like.
{"compound": "CC(=CCNc1ncnc2nc(N(C)C)[nH]c12)CO [Compound 63]", "system": "Human diploid fibroblast BJ", "test-value": ">100 µM"}
{"compound": "Nc1nc2ncnc(NCc3cccc(O)c3O)c2[nH]1 [Compound 102]", "system": "Human diploid fibroblast BJ", "test-value": ">100 µM"}
{"compound": "CC(=CCNc1ncnc2nc(NCCCN)[nH]c12)CO [Compound 210]", "system": "Human diploid fibroblast BJ", "test-value": ">100 µM"}
{"compound": "Oc1cccc(CNc2ncnc3nc(Cl)[nH]c23)c1O [Compound 46]", "system": "Human diploid fibroblast BJ", "test-value": ">200 µM"}

Request: Sample Brc1nc2ncnc(NCc3ccccc3)c2[nH]1 [Compound 2, 6-Benzylamino-8-bromopurine] — what was its GI20?
Response: >50 µM

Request: Entry to check: Oc1cc(O)cc(CNc2ncnc3nc(Cl)[nH]c23)c1 [Compound 47]
Response: >200 µM

Request: Entry to check: Cc1cccc(Nc2ncnc3nc(N(C)C)[nH]c23)c1 [Compound 81]
Response: >100 µM

Request: Entry to check: NCCCNc1nc2ncnc(NCc3ccccc3)c2[nH]1 [Compound 209]
Response: >100 µM

Request: Entry to check: Nc1nc2ncnc(NCc3cccc([N+](=O)[O-])c3)c2[nH]1 [Compound 100]
Response: >100 µM

Request: Entry to check: CC(C)=CCNc1ncnc2nc(N)[nH]c12 [Compound 87]
Response: >100 µM

Request: Entry to check: CC(=CCNc1ncnc2nc(N)[nH]c12)CO [Compound 84]
Response: >100 µM

Request: Entry to check: Nc1nc2ncnc(NCc3cccc(Cl)c3)c2[nH]1 [Compound 91]
Response: >100 µM

Request: Entry to check: Clc1nc2ncnc(NCc3ccccc3)c2[nH]1 [Compound 30, 6-Benzylamino-8-chloropurine]
Response: >100 µM

====

# System: osteosarcoma cell line HOS
# assay-method-text: In vitro cytotoxic activity (metabolisation of Calcein AM)
# Assay type: cell-based, human
# test-settings: HOS cells, 72 hours incubation, called GI50, read-out: Cell line tested/IC50 (μmol/L) HOS
# Source text: In vitro Cytotoxic Activity (Metabolisation of Calcein AM). Because toxic compounds negatively influence metabolic processes of cells, many standard cytotoxicity assays are based on measurement of metabolisation rate of various artificial substrates. Resulting product is then quantified, for example, by means of spectrometry. […] For evaluation of cytotoxicity of the 6,8-disubstituted purines of this invention, a microtiter assay based on quantification of metabolisation of Calcein AM was used. […]
readout-name: IC50

Request: Sample COc1ccc(CNc2ncnc3nc(N)[nH]c23)cc1 [Compound 99] — what was its IC50?
Response: > 50 µmol/L

====

readout-name: melting point

{"compound": "CN(C)c1nc2ncnc(NCc3ccccc3)c2[nH]1", "melting point": "217 to 219 °C"}
{"compound": "CSc1nc2ncnc(NCc3ccccc3)c2[nH]1", "melting point": "234 to 237 °C"}
{"compound": "O=C(O)c1nc2ncnc(NCc3ccccc3)c2[nH]1", "melting point": "230 to 232 °C"}
{"compound": "COc1nc2ncnc(NCc3ccco3)c2[nH]1", "melting point": "196 to 198 °C"}
{"compound": "Oc1nc2ncnc(NCc3ccccc3)c2[nH]1 [Compound 167, 6-Benzylamino-8-hydroxypurine]", "melting point": "243 to 247 °C"}

Request: Sample N#Cc1nc2ncnc(NCc3ccccc3)c2[nH]1 — what was its melting point?
Response: 210 to 213 °C

Request: Entry to check: OCCOc1nc2ncnc(NCc3ccco3)c2[nH]1
Response: 182 to 184 °C

Request: Entry to check: CC(C)=CCNc1ncnc2nc(N(C)C)[nH]c12
Response: 246 to 249 °C

====

# System: melanoma cell line G-361
# assay-method-text: In vitro cytotoxic activity (metabolisation of Calcein AM)
# Format: cell-based, human
# test-settings: G-361 cells, 72 hours incubation, called GI50, read-out: Cell line tested/IC50 (μmol/L) G-361
pIC50: −log10 of the molar value.
Below: a set of entries, each annotated with reported pIC50.

{"compound": "Nc1nc2ncnc(NCc3ccc(Cl)c(Cl)c3)c2[nH]1 [Compound 101]", "pIC50": "< 4.30"}
{"compound": "Oc1nc2ncnc(NCc3ccco3)c2[nH]1 [Compound 166]", "pIC50": "< 4.30"}
{"compound": "COc1cccc(Nc2ncnc3nc(CN)[nH]c23)c1 [Compound 186]", "pIC50": "< 4.30"}
{"compound": "Nc1nc2ncnc(NCc3cccc(O)c3O)c2[nH]1 [Compound 102]", "pIC50": "< 4.30"}
{"compound": "Nc1nc2ncnc(NCc3ccccc3F)c2[nH]1 [Compound 88]", "pIC50": "< 4.30"}
{"compound": "COc1cccc(CNc2ncnc3nc(N)[nH]c23)c1 [Compound 98]", "pIC50": "< 4.30"}

Request: Sample CC(CO)CCNc1ncnc2nc(N(C)C)[nH]c12 (stereo not shown) [Compound 64] — what was its pIC50?
Response: < 4.30

Request: Entry to check: O=C(O)c1nc2ncnc(NCc3ccco3)c2[nH]1 [Compound 201]
Response: < 4.30

====

Below: a set of entries, each annotated with reported melting point.

{"chemical-smiles": "CSc1nc2ncnc(NCC=C(C)C)c2[nH]1", "melting point": "96 to 99 °C"}
{"chemical-smiles": "NCCCNc1nc2ncnc(NCc3ccccc3)c2[nH]1", "melting point": "170 to 173 °C"}
{"chemical-smiles": "NCc1nc2ncnc(NCc3ccccc3)c2[nH]1", "melting point": "187 to 189 °C"}

Request: Sample Sc1nc2ncnc(NCc3ccccc3)c2[nH]1 — what was its melting point?
Response: 267 to 269 °C

Request: Entry to check: Nc1nc2ncnc(NCc3ccccc3)c2[nH]1
Response: 223 to 226 °C

====

Below: a set of entries, each annotated with reported Activity (%).
# System: cytokinin-dependent tobacco callus
# assay-method-text: Growth of cytokinin-dependent tobacco callus (plant cell division)
# Assay type: cell-based, Nicotiana tabacum L. cv. Wisconsin 38
# test-settings: at concentration with highest activity; activity of kinetin set at 100%
Please reply with the bare figure in % and do not write the unit itself.

Here's what some known entries look like.
{"molecule": "COC(=O)c1nc2ncnc(NCc3ccccc3)c2[nH]1", "system": "cytokinin-dependent tobacco callus", "readout-name": "Activity (%)", "test-value": 148.91}
{"molecule": "Nc1nc2c(NCc3ccco3)ncnc2[nH]1", "system": "cytokinin-dependent tobacco callus", "readout-name": "Activity (%)", "test-value": 150.10}
{"molecule": "Brc1nc2ncnc(NCc3ccccc3)c2[nH]1", "system": "cytokinin-dependent tobacco callus", "readout-name": "Activity (%)", "test-value": 174.83}
{"molecule": "COc1nc2ncnc(NCc3ccccc3)c2[nH]1", "system": "cytokinin-dependent tobacco callus", "readout-name": "Activity (%)", "test-value": 129.11}
{"molecule": "c1coc(CNc2ncnc3[nH]cnc23)c1 [kinetin, reference compound]", "system": "cytokinin-dependent tobacco callus", "readout-name": "Activity (%)", "test-value": 100}

Request: Sample CC(C)=CCNc1ncnc2nc(N)[nH]c12 — what was its Activity (%)?
Response: 150.44

====

# Test system: osteosarcoma cell line HOS
# assay-method-text: In vitro cytotoxic activity (metabolisation of Calcein AM)
# Format: cell-based, human
# test-settings: HOS cells, 72 hours incubation, called GI50, read-out: Cell line tested/IC50 (μmol/L) HOS
readout-name: IC50

{"molecule": "Nc1nc2ncnc(NCc3cccc([N+](=O)[O-])c3)c2[nH]1 [Compound 100]", "IC50": "> 50 µmol/L"}

Request: Sample Nc1nc2ncnc(NCc3ccc(O)c(O)c3)c2[nH]1 [Compound 103] — what was its IC50?
Response: > 50 µmol/L

Request: Entry to check: Nc1nc2ncnc(NCc3ccc(Cl)cc3)c2[nH]1 [Compound 92]
Response: > 50 µmol/L

Request: Entry to check: Oc1nc2ncnc(NCc3ccco3)c2[nH]1 [Compound 166]
Response: > 50 µmol/L

Request: Entry to check: Nc1nc2ncnc(Nc3ccccc3O)c2[nH]1 [Compound 114]
Response: > 50 µmol/L

Request: Entry to check: COc1ccc(CNc2ncnc3nc(N)[nH]c23)cc1O [Compound 105]
Response: > 50 µmol/L

Request: Entry to check: COc1ccccc1CNc1ncnc2nc(N)[nH]c12 [Compound 97]
Response: > 50 µmol/L

Request: Entry to check: NCc1nc2ncnc(Nc3ccccc3)c2[nH]1 [Compound 184]
Response: > 50 µmol/L
